Please respond with reported HFF1 LD50 for every item in the list.
- Test system: HFF1 human foreskin fibroblasts
- Assay text: Viability of human foreskin fibroblasts (trypan blue exclusion)
- Protocol conditions: human, 5 days

Exercise: Given O=C(Cn1ccnc1[N+](=O)[O-])NCc1ccccc1 [Bnz, reference compound] , state its recorded HFF1 LD50.
Solution: 118 ± 14 (3) µM

Exercise: Given Nc1nc(N)c2cc(NC(=O)c3ccccc3)ccc2n1 [Compound 1, N-(2,4-Diaminequinazolin-6-yl)benzamide] , state its recorded HFF1 LD50.
Solution: >100 (2) µM

Exercise: Given Nc1nc(N)c2cc(NCc3ccccc3Cl)ccc2n1 [Compound 8] , state its recorded HFF1 LD50.
Solution: 8 (2) µM

Exercise: Given Nc1nc(N)c2cc(NC(=O)c3ccccc3[N+](=O)[O-])ccc2n1 [Compound 2] , state its recorded HFF1 LD50.
Solution: >100 (2) µM

Exercise: Given Nc1nc(N)c2cc(NC(=O)c3ccc([N+](=O)[O-])cc3)ccc2n1 [Compound 4] , state its recorded HFF1 LD50.
Solution: >100 (2) µM

Exercise: Given Nc1nc(N)c2cc(NCc3cc(F)ccc3F)ccc2n1 [Compound 11] , state its recorded HFF1 LD50.
Solution: >60 (1) µM

Exercise: Given Nc1nc(N)c2cc(NC(=O)c3cccc([N+](=O)[O-])c3)ccc2n1 [Compound 3] , state its recorded HFF1 LD50.
Solution: >100 (2) µM

Exercise: Given Nc1nc(N)c2cc(NCc3ccc(Cl)cc3)ccc2n1 [Compound 10] , state its recorded HFF1 LD50.
Solution: >100 (2) µM

Exercise: Given Nc1nc(N)c2cc(NCc3ccccc3)ccc2n1 [Compound 5] , state its recorded HFF1 LD50.
Solution: 26 (2) µM

Exercise: Given Nc1nc(N)c2cc(NCc3cccc(Cl)c3)ccc2n1 [Compound 9] , state its recorded HFF1 LD50.
Solution: >100 (2) µM

* * *

- Tested on: T. cruzi Queretaro strain epimastigotes
- Assay text: Growth of epimastigotes cultured in vitro (motile parasites counted, relative growth)
- Type: cell-based, Trypanosoma cruzi
- Protocol conditions: Trypanosoma cruzi; epimastigote relative growth, 24 h treatment, 96-well plate; read-out: Epi ED50
Please respond with reported pIC50 for every item in the list.
Quick note: pIC50 means taking -log10 of the concentration in moles per liter.

Exercise: Given "Nc1nc(N)c2cc(NCc3ccccc3Cl)ccc2n1" , state its recorded pIC50.
Solution: 5.64

Exercise: Given "Nc1nc(N)c2cc(NC(=O)c3cccc([N+](=O)[O-])c3)ccc2n1" , state its recorded pIC50.
Solution: 5.62

Exercise: Given "Nc1nc(N)c2cc(NCc3ccc(Cl)cc3)ccc2n1" , state its recorded pIC50.
Solution: 5.05

Exercise: Given CC1CS(=O)(=O)CCN1/N=C/c1ccc([N+](=O)[O-])o1 (centres unmarked) [Nfx, reference compound] , state its recorded pIC50.
Solution: 5.42

Exercise: Given "Nc1nc(N)c2cc(NCc3cc(F)ccc3F)ccc2n1" , state its recorded pIC50.
Solution: 5.05

Exercise: Given "Nc1nc(N)c2cc(NC(=O)c3ccccc3[N+](=O)[O-])ccc2n1" , state its recorded pIC50.
Solution: 4.72

Exercise: Given "Nc1nc(N)c2cc(NC(=O)c3ccc([N+](=O)[O-])cc3)ccc2n1" , state its recorded pIC50.
Solution: 5.00

Exercise: Given "Nc1nc(N)c2cc(NCc3ccccc3)ccc2n1" , state its recorded pIC50.
Solution: 4.89

Exercise: Given O=C(Cn1ccnc1[N+](=O)[O-])NCc1ccccc1 [Bnz, reference compound] , state its recorded pIC50.
Solution: 5.03

Exercise: Given "Nc1nc(N)c2cc(NCc3cccc(Cl)c3)ccc2n1" , state its recorded pIC50.
Solution: 5.12
